The measurements presented in this section are drawn from ChEMBL document CHEMBL1151171.

# TARGET ENTITY: Pancreatic triacylglycerol lipase (Homo sapiens) (UniProt P16233)
# Sequence (whole entry): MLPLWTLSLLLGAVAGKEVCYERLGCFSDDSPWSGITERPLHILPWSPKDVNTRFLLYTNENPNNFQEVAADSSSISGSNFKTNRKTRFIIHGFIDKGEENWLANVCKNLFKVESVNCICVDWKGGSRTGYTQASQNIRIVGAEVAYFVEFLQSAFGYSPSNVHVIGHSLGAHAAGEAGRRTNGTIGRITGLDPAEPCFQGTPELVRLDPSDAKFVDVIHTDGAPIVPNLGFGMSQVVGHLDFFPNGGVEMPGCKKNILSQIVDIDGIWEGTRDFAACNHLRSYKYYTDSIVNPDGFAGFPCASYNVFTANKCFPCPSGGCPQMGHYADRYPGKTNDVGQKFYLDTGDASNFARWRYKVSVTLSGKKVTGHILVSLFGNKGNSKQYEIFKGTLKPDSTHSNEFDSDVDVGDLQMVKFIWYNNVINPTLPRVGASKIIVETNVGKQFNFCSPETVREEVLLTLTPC
# PROTOCOL TEXT: Inhibition of pancreatic lipase assessed as effect on oleic acid release from triolein at 1 mg/mL relative to control
The source made the active and inactive calls. The rule behind the calls is not given here.

- SMILES STRUCTURE: "C[C@@H]1O[C@@H](O[C@H]2[C@H](O[C@H]3CC[C@]4(C)[C@H]5CC=C6[C@@H]7CC(C)(C)CC[C@]7(C(=O)O[C@@H]7O[C@H](CO[C@@H]8O[C@H](CO)[C@@H](O)[C@H](O)[C@H]8O)[C@@H](O)[C@H](O)[C@H]7O)CC[C@@]6(C)[C@]5(C)CC[C@H]4C3(C)C)OC[C@@H](O)[C@@H]2O)[C@H](O)[C@H](O[C@@H]2O[C@H](CO)[C@@H](O)[C@H](O)[C@H]2O)[C@H]1O"
  Activity: "Active"
- SMILES STRUCTURE: "C[C@@H]1O[C@@H](O[C@H]2[C@H](O[C@H]3CC[C@]4(C)[C@H]5CC=C6[C@@H]7CC(C)(C)CC[C@]7(C(=O)O[C@@H]7O[C@H](CO[C@@H]8O[C@H](CO)[C@@H](O)[C@H](O)[C@H]8O)[C@@H](O)[C@H](O)[C@H]7O)CC[C@@]6(C)[C@]5(C)CC[C@H]4C3(C)C)OC[C@@H](O)[C@@H]2O)[C@H](O)[C@H](O[C@@H]2OC[C@@H](O[C@@H]3O[C@H](CO)[C@@H](O[C@@H]4OC[C@@H](O)[C@H](O)[C@H]4O)[C@H](O)[C@H]3O)[C@H](O)[C@H]2O)[C@H]1O"
  Activity: "Active"
- SMILES STRUCTURE: "C[C@@H]1O[C@@H](O[C@H]2[C@H](O[C@H]3CC[C@]4(C)[C@H]5CC=C6[C@@H]7CC(C)(C)CC[C@]7(C(=O)O[C@@H]7O[C@H](CO[C@@H]8O[C@H](CO)[C@@H](O)[C@H](O)[C@H]8O)[C@@H](O)[C@H](O)[C@H]7O)CC[C@@]6(C)[C@]5(C)CC[C@H]4C3(C)C)OC[C@@H](O)[C@@H]2O)[C@H](O)[C@H](O[C@@H]2OC[C@@H](O[C@@H]3O[C@H](CO)[C@@H](O)[C@H](O)[C@H]3O)[C@H](O)[C@H]2O)[C@H]1O"
  Activity: "Active"
